For each record, write down the corresponding growth.
Tested on: HOP-62 NSCLC
Assay: NCI-60 one-dose screen, 48 h (100 = growth as untreated, 0 = no growth, -100 = all killed)
Settings: 10 µM unless noted
About 83,000 compounds went through this panel and 20% of them were active in at least one assay; those are over-represented in the sample as a whole.
Give just the numeric value; % need not be written.

Request: Give the reported growth for this compound. COc1cc2c(cc1-c1c(C)noc1C)ncc1nc(C3CCC(F)(F)CC3)n(C3CCC(OC(F)F)CC3)c12 (centres undefined)
Response: 37.1

Request: Give the reported growth for this compound. O=S(=O)(O)c1ccc(N/N=C/c2ccccc2Cl)cc1
Response: 123

Request: Give the reported growth for this compound. Cn1c(-c2c(N)n(Cc3ccc(C(F)(F)F)cc3)c3nc(C#N)c(C#N)nc23)nc2ccccc21
Response: 21.3

Request: Give the reported growth for this compound. Cc1ccc2[nH]c(=O)c3c(c2c1)OC(N)=C(C#N)C31c2cc(Br)ccc2-c2ccc(Br)cc21
Response: 69

###

For each record, write down the corresponding growth.
Tested on: LOX IMVI melanoma
Assay: NCI-60 one-dose screen, 48 h (100 = growth as untreated, 0 = no growth, -100 = all killed)
Conditions: 10 µM unless noted
Compounds without any hit were thinned out: in the full panel of roughly 83,000, 20% have a hit.
Give just the numeric value; % need not be written.

Request: Give the reported growth for this compound. COc1ccc(NC(=O)CSc2nnc(-c3cc(-c4ccc(S(N)(=O)=O)cc4)nc4ccccc34)n2-c2ccccc2)cc1
Response: 90.3

Request: Give the reported growth for this compound. O=C(NCCc1ccc(O)c(O)c1)C12CC3CC(CC(C3)C1)C2
Response: 89.1

Request: Give the reported growth for this compound. Cn1cc2c(c1)-c1nc(Nc3ccccc3)ncc1CC2
Response: 49.6

Request: Give the reported growth for this compound. CCCCCc1nc2c(c3c1CCCC3)CCCC2
Response: 88.3

Request: Give the reported growth for this compound. Cc1ccc(Nc2ccc(Nc3ccc(C)cc3)c3c2C(=O)c2cccc(O)c2C3=O)cc1
Response: 91.5

Request: Give the reported growth for this compound. N#Cc1c(N)nc(NCCO)nc1-c1ccc(F)cc1
Response: 90.8

###

Tested on: DU-145 prostate
Assay: NCI-60 one-dose screen, 48 h (100 = growth as untreated, 0 = no growth, -100 = all killed)
Conditions: 10 µM unless noted
Compounds without any hit were thinned out: in the full panel of roughly 83,000, 20% have a hit. Activity calls are given as the source filed them. How the source made its calls: active means growth percent below 10; inactive means the rest.
TEST READOUT: growth

Request: Please indicate recorded growth of Cc1ccc(-c2cc(-c3ccccc3C)[nH]c(=O)c2C#N)s1 measured with DU-145 prostate.
Response: 104% (inactive)

Request: Please indicate recorded growth of O=C(O)c1ccc2c(c1Cl)C(=O)c1ccccc1C2=O measured with DU-145 prostate.
Response: 107% (inactive)

Request: Please indicate recorded growth of O=C(CSc1nccc(Nc2ccc(S(=O)(=O)Nc3nccs3)cc2)n1)c1ccc(F)cc1 measured with DU-145 prostate.
Response: 105% (inactive)

###

For each record, write down the corresponding growth.
Tested on: OVCAR-5 ovarian
Assay: NCI-60 one-dose screen, 48 h (100 = growth as untreated, 0 = no growth, -100 = all killed)
Details: 10 µM unless noted
This is part of a sample that, as a whole, favours compounds with a hit. Of some 83,000 tested, about 20% had one in any assay.
Give just the numeric value; % need not be written.

Request: Give the reported growth for this compound. Cc1ccc(-c2c(-c3ccccc3)c(=O)oc3ccc(C)cc23)cc1
Response: 113

Request: Give the reported growth for this compound. COc1cccc(-c2nn(-c3ccccc3)cc2-c2ccnc(NCCNC(=O)c3ccccc3)c2)c1
Response: 102

Request: Give the reported growth for this compound. COc1ccc(OC)c(-c2c(C#N)c(-c3ccc(Cl)cc3)nc3c2c(-c2ccccc2)nn3-c2ccccc2)c1
Response: 101

Request: Give the reported growth for this compound. N#C/C(=C\c1ccc(-c2ccccc2F)o1)c1nc(-c2ccco2)cs1
Response: 78.2

Request: Give the reported growth for this compound. Cc1cc(Cl)ccc1Nc1nc(C(F)(F)F)ccc1C(=O)N/N=C/c1ccc(N(C)C)cc1
Response: 43.2

Request: Give the reported growth for this compound. COc1cccc(-c2nn(-c3ccccc3)cc2-c2ccnc(NCCCNC(=O)c3cccc(C(F)(F)F)c3)c2)c1
Response: 71.6

Request: Give the reported growth for this compound. O=[N+]([O-])c1ccc(C2CC(c3ccccc3)=Nc3ccccc3S2)cc1 (stereo not given)
Response: 113

Request: Give the reported growth for this compound. COc1cc(C2CC(=O)Nc3c2c(C)nn3-c2nc3ccccc3[nH]2)cc2c1OCC(=O)N2 (stereo not given)
Response: 101

Request: Give the reported growth for this compound. O=c1[nH]c2ccccc2n1C1CCN(CCOc2ccccc2)CC1
Response: 104

Request: Give the reported growth for this compound. O=C1N=c2cc3c(cc2=C/C1=C/c1sc(=S)n(CCc2ccc(O)cc2)c1O)OCCO3
Response: 64

Request: Give the reported growth for this compound. Cc1cc(Cl)nc(NCc2cc(Nc3ccnc4cc(Cl)ccc34)ccc2F)n1
Response: 107

Request: Give the reported growth for this compound. NS(=O)(=O)c1cnccc1Oc1cccc2cccnc12
Response: 82.9

Request: Give the reported growth for this compound. COc1ccc2nc(NNC(=O)c3cnccn3)c3cccn3c2c1
Response: 4.68

Request: Give the reported growth for this compound. COc1ccc2[nH]c(O)c(C(=Nc3ccc(N(C)C(=O)CN4CCN(C)CC4)cc3)c3ccccc3)c2c1
Response: 49.2

Request: Give the reported growth for this compound. C=CCOC1=CC(=O)c2ccccc2C1=O
Response: 110

Recorded values, source PubChem BioAssay (NCI).
